# test.target: mouse Tas2r108 (Mus musculus, UniProt Q9JKT3)
# Construct: expressed in transfected cells; host or cells: HEK293T-Gα16gust44
# Sequence (Q9JKT3 whole entry): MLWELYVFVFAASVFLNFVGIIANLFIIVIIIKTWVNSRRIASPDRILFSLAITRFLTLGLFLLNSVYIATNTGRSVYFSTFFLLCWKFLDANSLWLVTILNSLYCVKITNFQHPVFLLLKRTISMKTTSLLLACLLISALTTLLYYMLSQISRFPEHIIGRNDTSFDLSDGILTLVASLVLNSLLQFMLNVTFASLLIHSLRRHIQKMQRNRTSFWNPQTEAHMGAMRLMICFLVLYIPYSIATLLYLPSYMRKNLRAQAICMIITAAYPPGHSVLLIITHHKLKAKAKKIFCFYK
# procedure.details: Calcium imaging assay (FLIPR), HEK293T-Gα16gust44 cells transfected with mouse Tas2r108
# Type: cell-based
# experimental.conditions: Time 14 s
Below, each of the compounds is paired with its reported RLU value.
recorded.metric: RLU (RLU)

>  <structure.as.smiles>
C[C@H](CCC(=O)NCCS(=O)(=O)O)[C@H]1CC[C@H]2[C@@H]3[C@H](O)C[C@@H]4C[C@H](O)CC[C@]4(C)[C@H]3C[C@H](O)[C@]12C

>  <test.target>
mouse Tas2r108 (Mus musculus, UniProt Q9JKT3)

>  <recorded.metric>
RLU

>  <recorded.result>
-6.544

$$$$
>  <structure.as.smiles>
C[C@H](CCC(=O)NCC(=O)O)[C@H]1CC[C@H]2[C@@H]3[C@H](O)C[C@@H]4C[C@H](O)CC[C@]4(C)[C@H]3C[C@H](O)[C@]12C

>  <test.target>
mouse Tas2r108 (Mus musculus, UniProt Q9JKT3)

>  <recorded.metric>
RLU

>  <recorded.result>
-24.1348

$$$$
>  <structure.as.smiles>
C[C@H](CCC(=O)O)[C@H]1CC[C@H]2[C@@H]3[C@H](O)C[C@@H]4C[C@H](O)CC[C@]4(C)[C@H]3C[C@H](O)[C@]12C

>  <test.target>
mouse Tas2r108 (Mus musculus, UniProt Q9JKT3)

>  <recorded.metric>
RLU

>  <recorded.result>
3.861

$$$$
>  <structure.as.smiles>
C[C@H](CCC(=O)O)[C@H]1CC[C@H]2[C@@H]3CC[C@@H]4C[C@H](O)CC[C@]4(C)[C@H]3C[C@H](O)[C@]12C

>  <test.target>
mouse Tas2r108 (Mus musculus, UniProt Q9JKT3)

>  <recorded.metric>
RLU

>  <recorded.result>
3.43

$$$$
>  <structure.as.smiles>
C[C@H](CCC(=O)NCCS(=O)(=O)O)[C@H]1CC[C@H]2[C@@H]3CC[C@@H]4C[C@H](O)CC[C@]4(C)[C@H]3CC[C@]12C

>  <test.target>
mouse Tas2r108 (Mus musculus, UniProt Q9JKT3)

>  <recorded.metric>
RLU

>  <recorded.result>
5.215

$$$$

Attribution: paper PMC10247784
